Tested on: Mtb H37Rv
Experiment: microbe, parasite or virus in culture
Assay type: cell-based, Mycobacterium tuberculosis
Details: Mycobacterium tuberculosis, H37RV; read-out: MIC in 7H9 ADC
value.type: MIC (µM)

>>> df
                                   molecule  lt_gt_eq  obs_value
0  Cc1nn2c(=O)cc(-c3ccc(Cl)c(Cl)c3)[nH]c2c1-c1ccc(F)cc1         =       2.34
1  Cc1nn2c(=O)nc(-c3ccccc3)[nH]c2c1-c1ccccc1         >        100
2  Cc1nn2c(=O)cc(-c3ccccc3)n(C)c2c1-c1ccccc1 [Compound P2]         >        100
3  Cc1nn2c(=O)cc(-c3ccc(F)c(F)c3)[nH]c2c1-c1ccccc1         =       2.73
4  COc1ccc(-c2cc(=O)n3nc(C)c(-c4ccc(F)cc4)c3[nH]2)cc1 [Compound 4, reference compound]         =       9.38
5  O=c1cc(CC2CCCCC2)[nH]c2c(-c3ccc(Cl)cc3)cnn12 [Compound 2, reference compound]         =       9.38
6  NNC(=O)c1ccncc1 [INH, isoniazid, reference compound]         =       0.23
